experiment: in vitro
Measurement label: viability at 2 h, 300 µM (%)
Give bare numbers, in %.

Input COc1cc(CNC(=O)CCCCC=CC(C)C)ccc1O , output reported viability at 2 h, 300 µM.
95

====

test: in vitro
Measurement label: viability at 2 h, 100 µM (%)
One number for each entry, in %.

Write down viability at 2 h, 100 µM measured for item COc1cc(CNC(=O)CCCCC=CC(C)C)ccc1O [capsaicin, 8-methyl-N-vanillyl-6-nonenamid]
99

====

assay: in vitro
Measurement label: viability at 2 h, 200 µM (%)
Give bare numbers, in %.

State, in one line, measured viability at 2 h, 200 µM of COc1cc(CNC(=O)CCCCC=CC(C)C)ccc1O
98
